assay_overview: Half life in Sprague-Dawley rat intestinal homogenates at 5 mM by HPLC analysis
Assay type: ADME, tissue-based, Intestine
Catalogue of half-life at 5000 µM values

May I ask what half-life at 5000 µM has been recorded for CC(C)C[C@H](N)C(=O)OC[C@@H]1NC(=O)[C@@H]2C[C@@H](O)CN2C1=O ?
< 4.98 min

May I ask what half-life at 5000 µM has been recorded for N[C@@H](Cc1ccccc1)C(=O)OC[C@@H]1NC(=O)[C@@H]2C[C@@H](O)CN2C1=O ?
< 4.98 min

May I ask what half-life at 5000 µM has been recorded for CCC(C)[C@H](N)C(=O)OC[C@@H]1NC(=O)[C@@H]2C[C@@H](O)CN2C1=O (stereo partly specified) ?
48 min

May I ask what half-life at 5000 µM has been recorded for O=C1N[C@@H](CO)C(=O)N2C[C@H](O)C[C@@H]12 ?
> 1200 min

May I ask what half-life at 5000 µM has been recorded for CC(C)[C@H](N)C(=O)OC[C@@H]1NC(=O)[C@@H]2C[C@@H](O)CN2C1=O ?
< 9.6 min

May I ask what half-life at 5000 µM has been recorded for CC(C)[C@H](N)C(=O)O[C@@H]1C[C@H]2C(=O)N[C@@H](CO)C(=O)N2C1 ?
54 min

----------
assay_overview: Cmax in Sprague-Dawley rat assessed as JBP485 level at 12 mg/kg equiv of JBP485 administered orally by UPLC-MS/MS analysis
Type: ADME, organism-based
Set-up: dose 12 mg/kg, route oral
measurement_conditions: in vivo, po
quantity: Cmax (µM)

Observe how each entry below is paired with its result.
# compound, Cmax / µM
data = [
    ("CC(C)[C@H](N)C(=O)O[C@@H]1C[C@H]2C(=O)N[C@@H](CO)C(=O)N2C1", 98.3),
    ("N[C@@H](Cc1ccccc1)C(=O)OC[C@@H]1NC(=O)[C@@H]2C[C@@H](O)CN2C1=O", 10.7),
]

[1] CCC(C)[C@H](N)C(=O)OC[C@@H]1NC(=O)[C@@H]2C[C@@H](O)CN2C1=O (stereo not given in full)
[2] CC(C)C[C@H](N)C(=O)OC[C@@H]1NC(=O)[C@@H]2C[C@@H](O)CN2C1=O
[3] CC(C)[C@H](N)C(=O)OC[C@@H]1NC(=O)[C@@H]2C[C@@H](O)CN2C1=O
Sort (3 compounds) by Cmax: min first. Hello, could you send the labels back in the order asked? Thank you.
2, 1, 3

----------
assay_overview: Tmax in Beagle dog at 12 mg/kg, po by UPLC-MS/MS analysis
Type: ADME, organism-based, Canis lupus familiaris
measurement_conditions: in vivo
quantity: Tmax (h)
Please give a number only; it is taken to be in h.

May I ask what Tmax has been recorded for O=C1N[C@@H](CO)C(=O)N2C[C@H](O)C[C@@H]12 ?
1.5

----------
assay_overview: Half life in pH 6.8 simulated intestinal fluid at 5 mM by HPLC analysis
Format: ADME
quantity: half-life at 5000 µM (h)

Observe how each entry below is paired with its result.
# compound, half-life at 5000 µM [h]
records = [
    ("CC(C)C[C@H](N)C(=O)OC[C@@H]1NC(=O)[C@@H]2C[C@@H](O)CN2C1=O", 2.4),
    ("CCC(C)[C@H](N)C(=O)OC[C@@H]1NC(=O)[C@@H]2C[C@@H](O)CN2C1=O (stereo partly specified)", 10.9),
    ("CC(C)[C@H](N)C(=O)OC[C@@H]1NC(=O)[C@@H]2C[C@@H](O)CN2C1=O", 7.9),
]

[a] CC(C)[C@H](N)C(=O)O[C@@H]1C[C@H]2C(=O)N[C@@H](CO)C(=O)N2C1
[b] N[C@@H](Cc1ccccc1)C(=O)OC[C@@H]1NC(=O)[C@@H]2C[C@@H](O)CN2C1=O
Among a and b , whose measured half-life at 5000 µM is the smaller figure? Give the label under which the chosen entry appears.
b
